Origin of the recorded values: paper PMC10397247

measuredTarget: T1, 4H234-AA
T1 chain: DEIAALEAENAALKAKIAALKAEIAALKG
methodSummary: two-hybrid library CCmax;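 further: natural log of median RNA to DNA barcode read ratio; higher means stronger binding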
experimentalConditions: mean of both orientations
readout: interaction score

| binder | interaction score |
| --- | --- |
| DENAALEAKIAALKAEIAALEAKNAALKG [4H1352-AA] | -1.3 |
| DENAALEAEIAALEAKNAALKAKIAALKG [4H1086-AA] | -1.17 |
| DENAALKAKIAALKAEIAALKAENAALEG [4H1867-AA] | -0.943 |

Consider the additional binder presented here.
Given the binder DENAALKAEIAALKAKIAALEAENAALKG [4H1636-AA] , what is its reported interaction score?
-1.95
